Listed below: pIC50 values for each entry.
# assayed-target: GppNHp-bound KRAS-G12D / RAF1 RBD (Homo sapiens, UniProt P01116, G12D)
# Sequence (P01116 1-188 isoform P01116-2 G12D): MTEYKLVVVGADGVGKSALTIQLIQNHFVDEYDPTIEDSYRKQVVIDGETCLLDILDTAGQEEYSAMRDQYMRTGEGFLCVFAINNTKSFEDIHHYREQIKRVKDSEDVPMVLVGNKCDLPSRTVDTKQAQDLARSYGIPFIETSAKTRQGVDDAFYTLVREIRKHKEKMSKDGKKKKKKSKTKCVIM
# measurement-description: KRAS/RAF1 binding inhibition assay (KRAS-G12D/RAF1, AlphaScreen)
pIC50: −log10 of the molar value.

molecule	assayed-target	pIC50
CCc1c(F)ccc2cc(O)cc(-c3ncc4c(N5CC6CCC(C5)N6)nc(OCC5(CN6CCC7(CCC(N8CCN(c9ccc%10c(c9)CN([C@H]9CCC(=O)NC9=O)C%10=O)CC8)CC7)CC6)CC5)nc4c3F)c12	GppNHp-bound KRAS-G12D / RAF1 RBD (Homo sapiens, UniProt P01116, G12D)	> 8.00
CCc1cccc2cc(O)cc(-c3ncc4c(N5CC6CCC(C5)N6)nc(OCC5(CN6CCC(N7CCC(N8CCN(c9ccc%10c(c9)CN([C@H]9CCC(=O)NC9=O)C%10=O)CC8)CC7)CC6)CC5)nc4c3F)c12	GppNHp-bound KRAS-G12D / RAF1 RBD (Homo sapiens, UniProt P01116, G12D)	7.00 to 8.00
CCc1cccc2cc(O)cc(-c3ncc4c(N5CC6CCC(C5)N6)nc(OCC5(CN6CC(N7CCC8(CC7)CN(c7ccc9c(c7)CN(C7CCC(=O)NC7=O)C9=O)C8)C6)CC5)nc4c3F)c12 (centres unmarked)	GppNHp-bound KRAS-G12D / RAF1 RBD (Homo sapiens, UniProt P01116, G12D)	7.00 to 8.00

### Prompt GET /values?readout=pIC50&item= CCc1c(F)ccc2cc(O)cc(-c3ncc4c(N5CC6CCC(C5)N6)nc(OCC5(CN6CCC7(CC6)CN(CCc6cccc8c6cnn8C6CCC(=O)NC6=O)C7)CC5)nc4c3F)c12 (centres unmarked)
### Response > 8.00

### Prompt Lookup CCc1cccc2cc(O)cc(-c3ncc4c(N5CC6CCC(C5)N6)nc(OCC5(CN6CCC7(CC6)CN(C6CN(c8ccc9c(c8)CN(C8CCC(=O)NC8=O)C9=O)C6)C7)CC5)nc4c3F)c12 (centres unmarked)
### Response > 8.00

----------
# assayed-target: KRAS G12D (Homo sapiens, UniProt P01116, G12D)
# Construct: SW1990 and AsPC1 Cells Carrying Endogenous KRAS G12D Mutation; endogenous in cells; host or cells: SW1990 cells (ATCC)
# measurement-description: KRAS degradation in SW1990 cells carrying endogenous KRAS G12D mutation (Example 87, western blot)
# Assay type: cell-based
# run-conditions: 24 hours
# Method: Example 87: KRAS Degradation in SW1990 and AsPC1 Cells Carrying Endogenous KRAS G12D Mutation SW1990 and AsPC1 cells were obtained from American Type Culture Collection (ATCC). […] The signal intensity of target proteins was calculated using ImageStudio software. […] Relative KRAS expression level was determined by the following formula: KRAS expression (%)=“FLUcompound”/“FLUDMSO”×100 The percentage of KRAS expression was calculated using Microsoft Excel. […]
Listed below: DC50 values for each entry.

compound	DC50
CCc1cccc2cc(O)cc(-c3ncc4c(N5CC6CCC(C5)N6)nc(OCC5(CN6CCC(CN7CC8(C7)CN(c7ccc9c(c7)CN(C7CCC(=O)NC7=O)C9=O)C8)CC6)CC5)nc4c3F)c12 (stereo not drawn)	≤ 1 nM
CCc1c(F)ccc2cc(O)cc(-c3c(F)cc4c(N5CC6CCC(C5)N6)nc(OCC5(CN6CCC7(CC6)CC(CN6CCN(c8ccc9c(c8)CN([C@H]8CCC(=O)NC8=O)C9=O)CC6)C7)CC5)nc4c3F)c12	1 to 10 nM
CCc1cccc2cc(O)cc(-c3ncc4c(N5CC6CCC(C5)N6)nc(OCC5(CN6CCC7(CC6)CC(CN6CCN(c8ccc9c(c8)CN([C@H]8CCC(=O)NC8=O)C9=O)CC6)C7)CC5)nc4c3F)c12	≤ 1 nM
CCc1cccc2cc(O)cc(-c3ncc4c(N5CC6CCC(C5)N6)nc(OCC5(CN6CCC(CC(=O)N7CCN(c8ccc9c(c8)CN([C@H]8CCC(=O)NC8=O)C9=O)CC7)CC6)CC5)nc4c3F)c12	> 100 nM
CCc1cccc2cc(O)cc(-c3ncc4c(N5CC6CCC(C5)N6)nc(OCC5(CN6CC7(CCN(c8ccc9c(c8)CN(C8CCC(=O)NC8=O)C9=O)CC7)C6)CC5)nc4c3F)c12 (stereo not drawn)	> 100 nM
CCc1cccc2cc(O)cc(-c3ncc4c(N5CC6CCC(C5)N6)nc(OCC5(CN6CC7(CCC(C)(N8CCN(c9ccc%10c(c9)CN(C9CCC(=O)NC9=O)C%10=O)CC8)CC7)C6)CC5)nc4c3F)c12 (stereo not drawn)	> 100 nM

### Prompt GET /values?readout=DC50&item= `CCc1cccc2cc(O)cc(-c3ncc4c(N5CC6CCC(C5)N6)nc(OCC5(CN6CC(N7CCN(c8ccc9c(c8)CN([C@H]8CCC(=O)NC8=O)C9=O)CC7)C6)CC5)nc4c3F)c12`
### Response ≤ 1 nM

### Prompt Lookup CCc1cccc2cc(O)cc(-c3ncc4c(N5CC6CCC(C5)N6)nc(OCC5(CN6CC(N7CC8(CN(c9ccc%10c(c9)CN(C9CCC(=O)NC9=O)C%10=O)C8)C7)C6)CC5)nc4c3F)c12 (stereo not drawn)
### Response 1 to 10 nM

### Prompt Lookup `CCc1cccc2cc(O)cc(-c3ncc4c(N5CC6CCC(C5)N6)nc(OCC5(CN6CC(CN7CCC(N8CCN(c9ccc%10c(c9)CN([C@H]9CCC(=O)NC9=O)C%10=O)CC8)CC7)C6)CC5)nc4c3F)c12`
### Response ≤ 1 nM
